Target: T1, recombinant HMG1 produced in E. coli as a calmodulin binding protein (CBP) fusion (human)
T1 construct: also called rHMG1; rHMGB1
T1 sequence (P09429 whole entry, the tested form may be a part): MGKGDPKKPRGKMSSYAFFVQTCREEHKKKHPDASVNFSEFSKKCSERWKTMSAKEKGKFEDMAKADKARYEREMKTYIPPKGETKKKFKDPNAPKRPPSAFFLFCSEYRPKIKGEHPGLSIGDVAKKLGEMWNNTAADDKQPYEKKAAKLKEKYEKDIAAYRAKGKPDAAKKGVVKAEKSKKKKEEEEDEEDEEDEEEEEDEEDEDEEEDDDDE
Experiment: BIAcore 3000, mAb amine-coupled to CM5, HMG1 injected, steady-state model
property measured: pKd
One number for each entry, as −log10 of the molar value.

Inquiry: # get_value(readout='pKd', item= human anti-HMG1 antibody G34 (antibody, IgG1, V domains shown, full length IgG1 made from a human Fab phage clone) VH: EVQLLESGGGLVQPGGSLRLSCAASGFTFSHYMMGWVRQAPGKGLEWVSRISPSGGGTVYADSVKGRFTISRDNSKNTLYLQMNSLRAEDTAVYYCARGGNWNYISYYYYYLDVWGKGTTVTVSS VL: DIQMTQSPSSLSASVGDRVAITCRASQSIDTYLNWYQQKPGKAPKLLIYAASKLEDGVPSRFSGSGTGTDFTLTIRSLQPEDFASYFCQQSYSSPGITFGPGTKVEIK )
Reply text: 7.17
